src = patent US8563730B2

# target or system: GK (glucokinase, residues 12-465) (Homo sapiens, UniProt P35557)
# Construct: I.D. No. 1 corresponds to residues 12-465 of glucokinase; made in house; host or cells: DH10b-T1r E. coli
# Sequence (P35557 with tags, fused parts or gaps isoform P35557-2): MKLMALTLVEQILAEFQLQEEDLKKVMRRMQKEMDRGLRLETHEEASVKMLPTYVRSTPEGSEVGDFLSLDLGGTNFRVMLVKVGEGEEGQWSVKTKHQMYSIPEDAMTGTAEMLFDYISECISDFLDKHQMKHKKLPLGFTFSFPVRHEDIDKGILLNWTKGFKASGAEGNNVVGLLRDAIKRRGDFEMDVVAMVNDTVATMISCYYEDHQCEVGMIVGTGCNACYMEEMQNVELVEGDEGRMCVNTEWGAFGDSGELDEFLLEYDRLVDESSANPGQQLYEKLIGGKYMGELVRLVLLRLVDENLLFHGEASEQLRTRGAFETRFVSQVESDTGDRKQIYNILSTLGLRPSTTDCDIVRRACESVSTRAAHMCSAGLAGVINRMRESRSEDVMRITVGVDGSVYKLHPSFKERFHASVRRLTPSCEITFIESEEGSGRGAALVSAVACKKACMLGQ
# test summary: enzymatic glucokinase activity assay (ATP consumption, KinaseGlo luminescence)
# Format: biochemical
# setup conditions: calculated maximal gain in GK enzyme activity at a saturating concentration of the compound; 5 μM ATP, 5 mM Glucose; reported as bins; read-out: % ACTmax
experimental readout: Emax

Sample records with Emax:
{"molecule": "O=C(Nc1cnccn1)C(CC1CCOCC1)n1ncc2c(S(=O)(=O)C3CC3)cccc21 (stereo not shown) [Compound 65]", "target or system": "GK (glucokinase, residues 12-465) (Homo sapiens, UniProt P35557)", "experimental readout": "Emax", "measured result": "90 to 100%"}
{"molecule": "O=C(Nc1ncc(F)s1)[C@H](CC1CCOCC1)n1ncc2c(S(=O)(=O)C3CC3)cc(Cl)cc21 [Compound 141]", "target or system": "GK (glucokinase, residues 12-465) (Homo sapiens, UniProt P35557)", "experimental readout": "Emax", "measured result": "90 to 100%"}
{"molecule": "COC(=O)c1cnc(NC(=O)C(CC2CCCC2)n2cc(S(=O)(=O)C3CC3)cn2)s1 (stereo not shown) [Compound 6]", "target or system": "GK (glucokinase, residues 12-465) (Homo sapiens, UniProt P35557)", "experimental readout": "Emax", "measured result": "≥ 111%"}
{"molecule": "COc1ccc2c(cnn2C(CC2CCOCC2)C(=O)Nc2ncc(F)s2)c1S(=O)(=O)C1CC1 (stereo not shown) [Compound 80]", "target or system": "GK (glucokinase, residues 12-465) (Homo sapiens, UniProt P35557)", "experimental readout": "Emax", "measured result": "101 to 105%"}
{"molecule": "Cn1ccc(NC(=O)C(CC2CCOCC2)n2ncc3c(S(=O)(=O)C4CC4)cc(F)cc32)n1 (stereo not shown) [Compound 104]", "target or system": "GK (glucokinase, residues 12-465) (Homo sapiens, UniProt P35557)", "experimental readout": "Emax", "measured result": "90 to 100%"}
{"molecule": "COc1ccc2nc(NC(=O)[C@@H](CC3CCOCC3)n3cc(S(=O)(=O)C4CC4)cn3)sc2n1 [Compound 25]", "target or system": "GK (glucokinase, residues 12-465) (Homo sapiens, UniProt P35557)", "experimental readout": "Emax", "measured result": "≤ 90%"}
{"molecule": "NC(=O)c1ccc(NC(=O)C(CC2CCOCC2)n2ncc3c(S(=O)(=O)C4CC4)cccc32)nc1 (stereo not shown) [Compound 14]", "target or system": "GK (glucokinase, residues 12-465) (Homo sapiens, UniProt P35557)", "experimental readout": "Emax", "measured result": "≥ 111%"}
{"molecule": "Cn1ccc(NC(=O)C(CC2CCOCC2)n2ncc3c(S(=O)(=O)C4CC4)cc(C#N)cc32)n1 (stereo not shown) [Compound 19]", "target or system": "GK (glucokinase, residues 12-465) (Homo sapiens, UniProt P35557)", "experimental readout": "Emax", "measured result": "≤ 90%"}

Query: Any idea what its Emax is? The molecule is Nc1cc(S(=O)(=O)C2CC2)c2cnn(C(CC3CCOCC3)C(=O)Nc3cnccn3)c2n1 (stereo not shown) [Compound 96]
Result: 101 to 105%

Query: Query (molecule): O=C(Nc1ncc(Cl)s1)[C@H](CC1CCOCC1)n1ncc2c(S(=O)(=O)C3CC3)cccc21 [Compound 64] ; field requested: Emax
Result: ≥ 111%

----------
# target or system: GK (glucokinase, residues 12-465) (Homo sapiens, UniProt P35557)
# Construct: I.D. No. 1 corresponds to residues 12-465 of glucokinase
# Sequence (P35557 with tags, fused parts or gaps isoform P35557-2): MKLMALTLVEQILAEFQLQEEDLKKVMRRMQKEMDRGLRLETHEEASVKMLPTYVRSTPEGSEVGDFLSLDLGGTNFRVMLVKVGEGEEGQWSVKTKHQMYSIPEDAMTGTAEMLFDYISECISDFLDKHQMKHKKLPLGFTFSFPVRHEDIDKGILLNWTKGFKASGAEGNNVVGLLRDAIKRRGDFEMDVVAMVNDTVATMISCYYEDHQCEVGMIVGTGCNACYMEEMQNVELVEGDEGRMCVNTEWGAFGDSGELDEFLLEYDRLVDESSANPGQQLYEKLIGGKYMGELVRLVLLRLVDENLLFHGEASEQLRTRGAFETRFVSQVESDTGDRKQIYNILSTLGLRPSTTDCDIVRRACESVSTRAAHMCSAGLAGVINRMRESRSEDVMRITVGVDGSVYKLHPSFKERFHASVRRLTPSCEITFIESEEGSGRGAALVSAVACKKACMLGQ
# test summary: enzymatic glucokinase activity assay (ATP consumption, KinaseGlo luminescence)
# setup conditions: Kact = concentration that displays 50% of the maximal increase in GK activity; 5 μM ATP, 5 mM Glucose, 60 min, room temperature; reported as bins; read-out: pKact
pEC50: −log10 of the molar value.
pEC50 values, listed per item

{"compound": "Cc1ccc(NC(=O)C(CC2CCOCC2)n2ncc3c(S(=O)(=O)C4CC4)cccc32)nn1 (stereo not shown)", "pEC50": "4.90 to 5.40"}
{"compound": "Cn1ccc(NC(=O)C(CC2CCOCC2)n2ncc3c(S(=O)(=O)C4CC4)cc(N)nc32)n1 (stereo not shown)", "pEC50": "≤ 4.80"}
{"compound": "O=C(Nc1cnccn1)C(CC1CCCC1)n1ncc2c(S(=O)(=O)C3CC3)cccc21 (stereo not shown)", "pEC50": "5.90 to 6.40"}
{"compound": "O=C(Nc1cnccn1)C(CC1CCOCC1)n1ncc2c(S(=O)(=O)C3CC3)cccc21 (stereo not shown)", "pEC50": "5.90 to 6.40"}
{"compound": "O=C(Nc1ncc(F)s1)C(CC1CCOCC1)n1ncc2c(S(=O)(=O)C3CC3)c(O)ccc21 (stereo not shown)", "pEC50": "≥ 6.50"}

Query: Which value of pEC50 has been reported for N#Cc1cc(S(=O)(=O)C2CC2)c2cnn(C(CC3CCOCC3)C(=O)Nc3cnccn3)c2c1 (stereo not shown) in the records?
Result: 5.90 to 6.40

Query: Can you look up the measured pEC50 of COc1ccc2nc(NC(=O)C(CC3CCOCC3)n3ccc(S(=O)(=O)C4CC4)n3)sc2n1 (stereo not shown) for me?
Result: ≤ 4.80

Query: Name the reported pEC50 value associated with the compound NC(=O)c1cnc(NC(=O)C(CC2CCCC2)n2cc(S(=O)(=O)C3CC3)cn2)s1 (stereo not shown)
Result: 4.90 to 5.40

Query: Return reported pEC50; argument: O=C(Nc1ncc(F)s1)[C@@H](CC1CCOCC1)n1ncc2c(S(=O)(=O)C3CC3)cncc21
Result: 5.50 to 5.80

Query: Which pEC50 is listed for N#Cc1cnc(NC(=O)[C@@H](CC2CCOCC2)n2ncc3c(S(=O)(=O)C4CC4)cccc32)s1 ?
Result: 4.90 to 5.40

Query: Name the reported pEC50 value associated with the compound COc1ccc2nc(NC(=O)C(CC3CCOCC3)n3cc(S(=O)(=O)c4ccc(Cl)cc4)cn3)sc2n1 (stereo not shown)
Result: 4.90 to 5.40

Query: What measured pEC50 goes with COc1ccc2nc(NC(=O)[C@H](CC3CCOCC3)n3ccc(S(=O)(=O)C4CC4)n3)sc2n1 ?
Result: ≤ 4.80

Query: Form field: reported pEC50 of N#Cc1cccnc1NC(=O)C(CC1CCOCC1)n1ncc2c(S(=O)(=O)C3CC3)cccc21 (stereo not shown)
Result: ≤ 4.80

Query: What does the record list as pEC50 for O=C(Nc1cnccn1)[C@@H](CC1CCOCC1)n1ncc2c(S(=O)(=O)C3CC3)cccc21 ?
Result: ≤ 4.80

Query: Quick one: pEC50 of Nc1cc(S(=O)(=O)C2CC2)c2cnn(C(CC3CCOCC3)C(=O)Nc3ncc(F)s3)c2c1 (stereo not shown) ?
Result: ≥ 6.50

Query: Requested field: pEC50. Item: O=C1CC[C@@H](C[C@@H](C(=O)Nc2ncc(F)s2)n2cc(S(=O)(=O)C3CC3)cn2)C1
Result: 4.90 to 5.40
